tested on: F1*sub RNA substrate (template-directed ligation); assay: fraction ligated after 30 min (ligated reads / total reads); higher = more ligase activity; sequences stand for … in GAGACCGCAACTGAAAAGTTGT…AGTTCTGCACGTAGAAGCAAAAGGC; details: 42 °C
Listed here are sequences together with their documented fraction ligated.
reported property: fraction ligated

{"item sequence": "TATCACTGTCGTAAGACACTTTGATGGGTTG [3d1452]", "assay value": 0.754}
{"item sequence": "TACACTTGTCGTAAGACACTTTGATGGGTTGA [2d63]", "assay value": 0.194}
{"item sequence": "TATCACTTGCTAAGACACTTTGATGGGTTGA [3d1607]", "assay value": 0.738}
{"item sequence": "TATCACTTGTCTAAGAACTTTGGAGGGTTGA [3d1860]", "assay value": 0.108}
{"item sequence": "TTCACTTGTCGTAGACACTTTGGAGGGTTGA [3d438]", "assay value": 0.149}
{"item sequence": "TATACTTGTCGTAAGACATTGGATGGGTTGA [3d918]", "assay value": 0.786}
{"item sequence": "TATCACTTGTCGTAAACACTTTGGATGGGTTG [2d243]", "assay value": 0.827}
{"item sequence": "TATCACTGTCAAGACACTTTGGATGGGTTGA [3d1358]", "assay value": 0.817}
{"item sequence": "TATCACTTGTGTAGACACTTGGATGGGTTGA [3d1737]", "assay value": 0.826}
{"item sequence": "TATCACTTGTCTAGACACTTGGATGGGTTGA [3d1829]", "assay value": 0.796}
{"item sequence": "ACACTTGCGTAAGACACTTTGGATGGGTTGA [3d29]", "assay value": 0.197}
{"item sequence": "TATCACTTGTCGAAGACCTTTGGTGGGTTGA [3d1945]", "assay value": 0.218}
{"item sequence": "TATCACTTGTCGTAAGACACTTTGAGGTTGA [3d2264]", "assay value": 0.0133}
{"item sequence": "TATCACTTTCTAAGACACTTGGATGGGTTGA [3d1486]", "assay value": 0.767}
{"item sequence": "TATCACTTGTCGTAGAACTTTGGATGGTTGA [3d2018]", "assay value": 0.206}
{"item sequence": "TATCCTGTCGTAAGACACTTGGATGGGTTGA [3d961]", "assay value": 0.794}
{"item sequence": "ATCCTTGTCGTAAGCACTTTGGATGGGTTGA [3d75]", "assay value": 0.715}
{"item sequence": "TATCACTTGTCGTAAACACTTGGATGGGTTG [3d2087]", "assay value": 0.774}
{"item sequence": "TATACTTGTCGTAGACACTTTGGATGGTTGA [3d880]", "assay value": 0.0359}
{"item sequence": "TATACTTGTGTAAGACATTTGGATGGGTTGA [3d835]", "assay value": 0.764}
{"item sequence": "TACATTGTCGTAAGACACTTTGGTGGGTTGA [3d561]", "assay value": 0.144}
{"item sequence": "TATCACTGTCGAAGACACTTTGATGGGTTGA [3d1379]", "assay value": 0.75}
{"item sequence": "TATCACTGTCGAAGACACTTTGGATGGGTTA [3d1383]", "assay value": 0.75}
{"item sequence": "ATCACTTGCGTAAGACATTTGGATGGGTTGA [3d148]", "assay value": 0.768}
{"item sequence": "TACACTGTGTAAGACACTTTGGATGGGTTGA [3d569]", "assay value": 0.632}
{"item sequence": "TATACTTGTGTAAGACACTTTGGATGGGTTG [3d842]", "assay value": 0.809}
{"item sequence": "ATACTTGTCGTAAACACTTTGGATGGGTTGA [3d55]", "assay value": 0.112}
{"item sequence": "TATCACTTGCGTAAGCACTTTGGTGGGTTGA [3d1654]", "assay value": 0.366}
{"item sequence": "TATCACTTGCGTAGACACTTTGGATGGGTTG [3d1638]", "assay value": 0.816}
{"item sequence": "TACATTGTCGTAAGAACTTTGGATGGGTTGA [3d556]", "assay value": 0.0064}
{"item sequence": "TATCCTGTCGTAAGACACTTTGGATGGTTGA [3d965]", "assay value": 0.038}
{"item sequence": "TATCCTTGTTAAGACACTTTGGATGGGTTGA [3d1000]", "assay value": 0.793}
{"item sequence": "TATCATTTCGTAAGACACTTTGGATGGGTTG [3d1155]", "assay value": 0.769}
{"item sequence": "ACACTTGTCGTAAGACACTTTGGATGGTTGA [3d43]", "assay value": 0.662}
{"item sequence": "ACACTTGTCGTAAGCACTTTGGATGGGTTGA [3d35]", "assay value": 0.221}
{"item sequence": "TATCATTTCGTAAGACACTTTGGTGGGTTGA [3d1151]", "assay value": 0.1}

Origin of values: the supplement of paper PMC6755084
